- Species on record: Homo sapiens
- protocol: Time required for 50%hydrolysis of prodrug to AZT in normal human serum was determined
- Type: ADME, organism-based
Values of T1/2 greater than or equal to 20 min map to y; values below map to n.

A selection of reference data follows.
INSERT INTO measurements (compound, classification) VALUES
  ('Cc1cn(C2CC(N=[N+]=[N-])C(COC(=O)NCCCO)O2)c(=O)[nH]c1=O (configuration not stated)', 'y'),
  ('Cc1cn(C2CC(N=[N+]=[N-])C(COC(=O)OCCCCCCO)O2)c(=O)[nH]c1=O (configuration not stated)', 'n'),
  ('Cc1cn(C2CC(N=[N+]=[N-])C(COC(=O)NCCCC(=O)O)O2)c(=O)[nH]c1=O (configuration not stated)', 'y'),
  ('Cc1cn(C2CC(N=[N+]=[N-])C(COC(=O)OCCCC(=O)OC(C)(C)C)O2)c(=O)[nH]c1=O (configuration not stated)', 'n'),
  ('Cc1cn(C2CC(N=[N+]=[N-])C(COC(=O)OCCCN)O2)c(=O)[nH]c1=O (configuration not stated)', 'n'),
  ('Cc1cn(C2CC(N=[N+]=[N-])C(COC(=O)OCCO)O2)c(=O)[nH]c1=O (configuration not stated)', 'n');

Asked: Record Cc1cn(C2CC(N=[N+]=[N-])C(COC(=O)CCCC(=O)O)O2)c(=O)[nH]c1=O (configuration not stated) ; criterion: T1/2 no lower than 20 min. Met?
Given back: y

Asked: Record CCCCOC(=O)OCC1OC(n2cc(C)c(=O)[nH]c2=O)CC1N=[N+]=[N-] (configuration not stated) ; criterion: T1/2 no lower than 20 min. Met?
Given back: n

Asked: Record Cc1cn(C2CC(N=[N+]=[N-])C(COC(=O)OCCCCCO)O2)c(=O)[nH]c1=O (configuration not stated) ; criterion: T1/2 no lower than 20 min. Met?
Given back: n

Asked: Record Cc1cn(C2CC(N=[N+]=[N-])C(COC(=O)CCCC(=O)OC(C)(C)C)O2)c(=O)[nH]c1=O (configuration not stated) ; criterion: T1/2 no lower than 20 min. Met?
Given back: y

Asked: Record Cc1cn(C2CC(N=[N+]=[N-])C(COC(=O)NCCCC(=O)OC(C)(C)C)O2)c(=O)[nH]c1=O (configuration not stated) ; criterion: T1/2 no lower than 20 min. Met?
Given back: y

Asked: Record Cc1cn(C2CC(N=[N+]=[N-])C(COC(=O)OCCCCO)O2)c(=O)[nH]c1=O (configuration not stated) ; criterion: T1/2 no lower than 20 min. Met?
Given back: y

Asked: Record Cc1cn(C2CC(N=[N+]=[N-])C(COC(=O)OCCCC(=O)O)O2)c(=O)[nH]c1=O (configuration not stated) ; criterion: T1/2 no lower than 20 min. Met?
Given back: y

Asked: Record Cc1cn(C2CC(N=[N+]=[N-])C(COC(=O)NCCCN)O2)c(=O)[nH]c1=O (configuration not stated) ; criterion: T1/2 no lower than 20 min. Met?
Given back: y

Asked: Record Cc1cn(C2CC(N=[N+]=[N-])C(COC(=O)OCCCCCCCCO)O2)c(=O)[nH]c1=O (configuration not stated) ; criterion: T1/2 no lower than 20 min. Met?
Given back: n

Asked: Record Cc1cn(C2CC(N=[N+]=[N-])C(COC(=O)OCCCO)O2)c(=O)[nH]c1=O (configuration not stated) ; criterion: T1/2 no lower than 20 min. Met?
Given back: n

Asked: Record Cc1cn(C2CC(N=[N+]=[N-])C(COC(=O)CCCN)O2)c(=O)[nH]c1=O (configuration not stated) ; criterion: T1/2 no lower than 20 min. Met?
Given back: y

All figures here come from ChEMBL document CHEMBL1134362.
